Origin of the recorded values: patent US9796711B2

Exercise: for every item that follows, state its recorded pEC50.
Biological target: ΔF508-CFTR (Homo sapiens, UniProt P13569, DEL508-508)
Construct: host or cells: CFBE41o-, doxycycline-inducible
Sequence (P13569 with tags, fused parts or gaps DEL508-508): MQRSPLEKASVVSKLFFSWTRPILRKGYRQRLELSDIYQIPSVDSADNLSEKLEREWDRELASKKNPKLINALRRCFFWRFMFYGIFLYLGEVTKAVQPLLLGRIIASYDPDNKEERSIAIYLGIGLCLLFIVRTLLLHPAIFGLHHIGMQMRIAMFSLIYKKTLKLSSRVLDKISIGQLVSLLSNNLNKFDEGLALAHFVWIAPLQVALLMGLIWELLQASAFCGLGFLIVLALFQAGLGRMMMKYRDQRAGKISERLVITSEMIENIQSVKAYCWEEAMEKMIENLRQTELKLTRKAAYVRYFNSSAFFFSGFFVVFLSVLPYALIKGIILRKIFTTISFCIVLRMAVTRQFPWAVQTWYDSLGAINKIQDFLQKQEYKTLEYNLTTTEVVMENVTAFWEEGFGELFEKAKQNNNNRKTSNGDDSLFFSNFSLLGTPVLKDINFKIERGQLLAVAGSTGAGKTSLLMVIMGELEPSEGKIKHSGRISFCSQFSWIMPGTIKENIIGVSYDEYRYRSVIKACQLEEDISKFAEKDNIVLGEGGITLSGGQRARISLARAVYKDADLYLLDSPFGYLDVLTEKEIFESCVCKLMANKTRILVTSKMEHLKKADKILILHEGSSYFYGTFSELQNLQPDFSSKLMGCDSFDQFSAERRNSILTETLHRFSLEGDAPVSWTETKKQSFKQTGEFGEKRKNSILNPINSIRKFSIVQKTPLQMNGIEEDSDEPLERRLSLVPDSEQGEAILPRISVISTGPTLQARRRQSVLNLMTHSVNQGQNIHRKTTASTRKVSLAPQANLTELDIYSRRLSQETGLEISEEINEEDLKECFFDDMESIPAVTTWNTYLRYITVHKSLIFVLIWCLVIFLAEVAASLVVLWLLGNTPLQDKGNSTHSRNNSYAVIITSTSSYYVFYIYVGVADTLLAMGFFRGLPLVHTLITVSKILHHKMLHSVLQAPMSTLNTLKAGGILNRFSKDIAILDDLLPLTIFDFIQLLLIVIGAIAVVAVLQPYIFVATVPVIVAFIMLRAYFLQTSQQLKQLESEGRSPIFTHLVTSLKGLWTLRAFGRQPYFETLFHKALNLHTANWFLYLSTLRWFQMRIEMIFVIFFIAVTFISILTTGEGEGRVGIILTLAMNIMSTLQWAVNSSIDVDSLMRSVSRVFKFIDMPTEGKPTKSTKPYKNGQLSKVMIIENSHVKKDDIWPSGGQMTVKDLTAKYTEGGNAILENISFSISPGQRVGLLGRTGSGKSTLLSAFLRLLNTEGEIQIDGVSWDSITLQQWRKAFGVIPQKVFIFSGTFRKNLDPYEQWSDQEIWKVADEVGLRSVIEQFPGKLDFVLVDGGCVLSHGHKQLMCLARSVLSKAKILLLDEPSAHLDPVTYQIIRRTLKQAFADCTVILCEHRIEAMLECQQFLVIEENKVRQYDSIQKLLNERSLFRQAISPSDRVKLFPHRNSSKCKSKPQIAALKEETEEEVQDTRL
Test: CFTR cell surface levels using HRP-tagged ΔF508-CFTR expressing CFBE cells, in the presence of a co-corrector
Assay type: cell-based
Conditions: HRP-tagged ΔF508-CFTR expressing CFBE cells, in the presence of 3 μM co-corrector; read-out: EC50
One number for each entry, as −log10 of the molar value.

List pEC50 for every entry below, keeping the order given.
1. Cc1nn(-c2ccccc2)c2nc(C(=O)O)cc(-c3ccc(N4CC(C)OC(C)C4)cc3)c12 (stereo not shown)
2. CC(C)c1nn(-c2ccnc(N3CCCC3)c2)c2nc(C(=O)O)cc(-c3ccc(N4CCC(C#N)CC4)nc3)c12
3. Cc1nn(-c2ccccc2)c2nc(C(=O)O)cc(N3CC4CNCCN4C3=O)c12 (stereo not shown)

1: 5.91; 2: 6.33; 3: 5.12

Which measured pEC50 value corresponds to COCC1CN(C2CCN(c3cc(C(=O)O)nc4c3c(C3CCC3)nn4-c3ccc(F)cc3)CC2)CCO1 (stereo not shown) ?
6.75

* * *

Molecular target: ΔF508-CFTR (Homo sapiens, UniProt P13569, DEL508-508)
Construct: host or cells: CFBE41o-, doxycycline-inducible
Test: CFTR cell surface levels using HRP-tagged ΔF508-CFTR expressing CFBE cells, intrinsic corrector capacity
Assay type: cell-based
Conditions: HRP-tagged ΔF508-CFTR CFBE41o- cells, compounds alone (intrinsic corrector capacity), 20 hours at 33° C.; read-out: EC50
recordedMetric: EC50

Before answering, review these 3 worked examples.
# molecule, EC50
measured = [
    ("Cc1cccc(-n2nc(C(C)C)c3c(N4CCC5(C4)CC5(F)F)cc(C(=O)O)nc32)c1 (stereo not shown) [compound 271]", "924 nM"),
    ("CC(C)c1nn(C2CCCCC2)c2nc(C(=O)O)cc(-c3ccc(N4CCOCC4)cc3)c12 [compound 54]", "763 nM"),
    ("CC(C)c1nn(-c2cccc(N(C)C)c2)c2nc(C(=O)O)cc(-c3cnc(N4CCOCC4)nc3)c12 [compound 84]", "829 nM"),
]

Which measured EC50 value corresponds to COCCN(C)c1ccc(-c2cc(C(=O)O)nc3c2c(C(C)C)nn3-c2cccc(N3CCCC3)c2)cn1 [compound 253] ?
656 nM

* * *

Target: ΔF508-CFTR (Homo sapiens, UniProt P13569, DEL508-508)
Construct: host or cells: CFBE41o-, doxycycline-inducible
Assay: CFTR cell surface levels using HRP-tagged ΔF508-CFTR expressing CFBE cells, intrinsic corrector capacity
Type: cell-based
Settings: HRP-tagged ΔF508-CFTR expressing CFBE cells; intrinsic corrector capacity (no co-corrector); 33° C., 20 hours
Exercise: for every item that follows, state its recorded % Activation.
One number for each entry, in %.

# compound, targetEntity, measurementUnit, % Activation
measured = [
    ("CC(C)N1CCN(C2CCN(c3cc(C(=O)O)nc4c3c(C3CCC3)nn4-c3ccc(F)cc3)CC2)CC1", "ΔF508-CFTR (Homo sapiens, UniProt P13569, DEL508-508)", "%", 279.6),
    ("CC(C)(C)OC(=O)N1CCC(Oc2nn(-c3ccccc3)c3nc(C(=O)O)cc(-c4ccc(N5CCC(C#N)CC5)nc4)c23)C1 (stereo not drawn)", "ΔF508-CFTR (Homo sapiens, UniProt P13569, DEL508-508)", "%", 156.1),
    ("O=C(O)c1cc(N2CCC(N3CCCCC3)CC2)c2c(C3CCC3)nn(-c3ccc(F)cc3)c2n1", "ΔF508-CFTR (Homo sapiens, UniProt P13569, DEL508-508)", "%", 185.9),
]

List % Activation for every entry below, keeping the order given.
1. CC1(CO)CN(c2cc(C(=O)O)nc3c2c(C2CCC2)nn3-c2ccccc2)C1
2. CC(C)c1nn(-c2ccc(F)cc2)c2nc(C(=O)O)cc(N3CC[C@@H](N4CCCCC4)C3)c12
3. O=C(O)c1cc(NC[C@@H]2CCCO2)c2c(C3CCC3)nn(-c3ccccc3)c2n1

1. 56.48
2. 67.03
3. 165.6
